Hey, just so you know, these numbers are from the supplement of paper PMC10126150.

# maps each entry to its switch fluorescence ratio
System: ATP;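 note: ATP exposure 15 min at 22 °C before imaging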
Protocol Details: switch fluorescence ratio, 500 uM ATP over buffer (Cy3 cluster intensity, sum of 5 cycles each) (fold (ratio)); higher = stronger signal-on switching upon ATP binding; sequences stand for … in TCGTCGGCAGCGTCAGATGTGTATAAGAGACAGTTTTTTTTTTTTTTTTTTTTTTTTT…TC
Condition Description: aptamer strand: ATP DNA aptamer (quencher-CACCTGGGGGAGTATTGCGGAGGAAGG + anchor), 100 nM annealed; ATP concentration: 500 uM
Reply with the value as a number alone.

Item Sequence	Metric Name	Number
GGGGTTATTA	switch fluorescence ratio	0.992

Measured switch fluorescence ratio of "CAGGCCGGAG" : 1.01

"TAACTTATAA" has a reported switch fluorescence ratio of 0.991

"GGGCGCTAGG" yielded switch fluorescence ratio of 0.971

Entry "GTGGGGGAGA" ; switch fluorescence ratio = 0.987

Given item "TTTTTGGGTT" , the value recorded as its switch fluorescence ratio is 1.02

According to the records, this sequence "AGAGTATTTT" displays switch fluorescence ratio of 0.999

---

Test system: ATP;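 note: ATP exposure 15 min at 22 °C before imaging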
Protocol Details: switch fluorescence ratio, 500 uM ATP over buffer (Cy3 cluster intensity, sum of 5 cycles each) (fold (ratio)); higher = stronger signal-on switching upon ATP binding; sequences stand for … in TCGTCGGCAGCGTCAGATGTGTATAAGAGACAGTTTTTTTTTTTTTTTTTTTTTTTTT…TC
Condition Description: aptamer strand: ATP DNA aptamer (quencher-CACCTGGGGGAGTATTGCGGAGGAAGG + anchor), 100 nM annealed; ATP concentration: 500 uM
Label Satisfied for high-side switch fluorescence ratio (at or above 1) and Not satisfied for low-side switch fluorescence ratio (below it).

Item Sequence	Test Target	Classification
CGTCACCATG	ATP	Satisfied

(Q) Reported switch fluorescence ratio reaches at least 1 for "AACTTGGCTT" ?
(A) Not satisfied

(Q) hey, is switch fluorescence ratio for this one >= 1? "GACATTATAT"
(A) Satisfied

---

Documented switch fluorescence ratio across a set of sequences
System: ATP;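 note: ATP exposure 15 min at 22 °C before imaging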
Protocol Details: switch fluorescence ratio, 500 uM ATP over buffer (Cy3 cluster intensity, sum of 5 cycles each) (fold (ratio)); higher = stronger signal-on switching upon ATP binding; sequences stand for … in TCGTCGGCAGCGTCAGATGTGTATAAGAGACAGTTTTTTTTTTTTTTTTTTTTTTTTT…TC
Condition Description: aptamer strand: ATP DNA aptamer (quencher-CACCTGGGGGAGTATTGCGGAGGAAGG + anchor), 100 nM annealed; ATP concentration: 500 uM
Field format: numeric only.

Example results:
Item Sequence	switch fluorescence ratio
TAGAAATGGG	1.19
GCGCTAGGCT	1.01
AAGTCCGGGG	0.97
GTGTTAGACT	0.962
TTGTCCTCCT	1.11
TTTAAGTATT	0.999

Lab entry: ATP assay, sequence "GGGTTCAGGG" , switch fluorescence ratio = 0.977

---

System: ATP;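 note: ATP exposure 15 min at 22 °C before imaging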
Protocol Details: switch fluorescence ratio, 500 uM ATP over buffer (Cy3 cluster intensity, sum of 5 cycles each) (fold (ratio)); higher = stronger signal-on switching upon ATP binding; sequences stand for … in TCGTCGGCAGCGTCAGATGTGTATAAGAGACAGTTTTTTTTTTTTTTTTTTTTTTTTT…TC
Condition Description: aptamer strand: ATP DNA aptamer (quencher-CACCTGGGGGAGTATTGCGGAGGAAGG + anchor), 100 nM annealed; ATP concentration: 500 uM
Kind request: treat 1 as inclusive, so switch fluorescence ratio at 1 or higher is yes, anything lower is no.

Before answering, review these 8 worked examples.
Item Sequence	Test Target	Classification
GGCCAGGGTG	ATP	yes
CCGGCGCGTG	ATP	yes
ACGGAAGGTT	ATP	yes
TGGAGAAGTA	ATP	yes
GCACGTATTC	ATP	yes
TTTTGCGCCG	ATP	yes
CTGCTGGGGT	ATP	yes
TCGGGGACGT	ATP	yes

(Q) Hi, just wondering whether "TTTCGGATGC" shows switch fluorescence ratio of 1 or higher.
(A) yes

(Q) In plain terms: is recorded switch fluorescence ratio at least 1 for "TTGATCGGGC" ?
(A) yes
